# system_tested: PARP10cat (Homo sapiens)
# Sequence (Q53GL7 806-1025 limits assumed): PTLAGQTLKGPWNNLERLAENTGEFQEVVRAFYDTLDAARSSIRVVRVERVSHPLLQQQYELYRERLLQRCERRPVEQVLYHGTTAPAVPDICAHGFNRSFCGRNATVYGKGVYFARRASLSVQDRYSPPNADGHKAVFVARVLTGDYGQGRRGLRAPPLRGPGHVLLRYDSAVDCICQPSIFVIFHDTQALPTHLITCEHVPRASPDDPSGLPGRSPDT
# assay_notes: Inhibition of PARP10cat-mediated ADP-ribosylation of SRPK2 using NAD+ (100 μM)
# Assay type: biochemical
Please provide measured selectivity for PARP10 over PARP11 for the entries that follow.
# value in fold; strip the unit string

Observed selectivity for PARP10 over PARP11, PARP10cat (Homo sapiens), Cc1c(-c2ccccc2)ccc2c1CCNC2=O [Compound 14] : 17

Form field, selectivity for PARP10 over PARP11 with PARP10cat (Homo sapiens), item Cc1c(-c2cccnc2)ccc2c1CCNC2=O [Compound 15] : 12

PARP10cat (Homo sapiens) assay, compound Cc1c(-c2cnc3[nH]ccc3c2)ccc2c1CCNC2=O [Compound 18] , recorded selectivity for PARP10 over PARP11 = 17

Param item: Cc1c(-c2ccnc(F)c2)ccc2c1CCNC2=O [Compound 20] ; param system: PARP10cat (Homo sapiens); output selectivity for PARP10 over PARP11: 24

Simply: Cc1c(-c2ccncc2)ccc2c1CCNC2=O [Compound 16] , PARP10cat (Homo sapiens), selectivity for PARP10 over PARP11 = 15

Kindly note: PARP10cat (Homo sapiens), O=C1NCCc2cc(-c3ccccc3)ccc21 [Compound 8] , selectivity for PARP10 over PARP11 value reported: 4

Form field selectivity for PARP10 over PARP11 for item Cc1c(-c2ccnc(C(F)(F)F)c2)ccc2c1CCNC2=O [Compound 22] on PARP10cat (Homo sapiens): 29

Noted selectivity for PARP10 over PARP11 for O=C1NCCc2cc(-c3cccc(C(F)(F)F)c3)ccc21 [Compound 12] , tested on PARP10cat (Homo sapiens): 8

Form: item Cc1c(-c2cncc(F)c2)ccc2c1CCNC2=O [Compound 23] ; test system PARP10cat (Homo sapiens); selectivity for PARP10 over PARP11: 25

Entry Cc1c(-c2cnc3ccccc3c2)ccc2c1CCNC2=O [Compound 19] , PARP10cat (Homo sapiens) data, selectivity for PARP10 over PARP11 value: 8

// returns selectivity for PARP10 over PARP11 for Cc1cccc2c1CCNC2=O [Compound 3, 5-methyl-dq] with PARP10cat (Homo sapiens); value = 0.24

// compound Cc1c(-c2ccc3[nH]ccc3c2)ccc2c1CCNC2=O [Compound 17] , assay PARP10cat (Homo sapiens), selectivity for PARP10 over PARP11 value: 4
